Test system: P-MEK/Total MEK
experiment: Western blot MEK1 phosphorylation, MOLM-13
Format: cell-based
experimental.setup: Homo sapiens; MOLM-13 cells; 2 h; read-out: IC50 P-MEK/Total MEK
pIC50: −log10 of the molar value.
property.label: pIC50

Kindly indicate its recorded pIC50. Item: O=S(=O)(Nc1cccc(-c2nc(CCO)sc2-c2ccnc(Nc3ccccc3)n2)c1F)c1c(F)cccc1F < 6.00
